# TARGET OR TEST SYSTEM: T1, cynoSIRPα (EGM_02252), Extracellular Domain + His-Tag (cynomolgus monkey)
# T1 construct: also called CySIRPα EGM_02252; not shown: His-Tag
# T1 chain: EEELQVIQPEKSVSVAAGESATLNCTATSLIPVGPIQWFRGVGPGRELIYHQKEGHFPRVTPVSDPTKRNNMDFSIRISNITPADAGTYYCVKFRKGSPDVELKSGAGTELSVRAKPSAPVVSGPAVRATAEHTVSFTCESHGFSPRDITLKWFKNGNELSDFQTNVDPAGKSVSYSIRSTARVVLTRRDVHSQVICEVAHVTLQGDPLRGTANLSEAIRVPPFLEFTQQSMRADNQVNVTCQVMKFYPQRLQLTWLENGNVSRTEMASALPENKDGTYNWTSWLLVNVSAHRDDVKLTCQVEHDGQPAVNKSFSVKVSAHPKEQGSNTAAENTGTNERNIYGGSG
# PROTOCOL DETAILS: SPR, antibody captured on Protein A/G, ECD-His analyte, steady-state fit
READOUT LABEL: Kd (nM)
Give your result in nM as a bare value.

BINDER	ENDPOINT UNIT	ASSAY RESULT
Antibody A16 (antibody, human IgG1, kappa, L234A L235A, V domains shown) VH: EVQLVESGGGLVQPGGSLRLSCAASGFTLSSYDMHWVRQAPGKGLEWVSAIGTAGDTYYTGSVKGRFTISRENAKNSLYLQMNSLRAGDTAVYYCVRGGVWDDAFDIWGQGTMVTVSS VL: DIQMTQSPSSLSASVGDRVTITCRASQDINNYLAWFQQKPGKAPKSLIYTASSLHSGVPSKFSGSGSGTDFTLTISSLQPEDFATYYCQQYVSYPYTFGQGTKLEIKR	nM	224
Antibody A8 (antibody, human IgG1, kappa, L234A L235A, V domains shown) VH: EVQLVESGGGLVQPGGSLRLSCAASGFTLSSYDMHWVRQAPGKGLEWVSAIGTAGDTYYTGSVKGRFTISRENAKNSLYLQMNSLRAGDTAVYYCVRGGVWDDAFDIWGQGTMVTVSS VL: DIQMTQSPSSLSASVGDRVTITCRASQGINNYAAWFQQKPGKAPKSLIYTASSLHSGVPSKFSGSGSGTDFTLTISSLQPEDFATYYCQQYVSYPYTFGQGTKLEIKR	nM	520

Consider the additional binder presented here.
Requested field: Kd. Item: Antibody A2 (antibody, human IgG1, kappa, L234A L235A, V domains shown) VH: EVQLVESGGGLVQPGGSLRLSCAASGFTLSSYDMHWVRQATGKGLEWVSAIGTAGDTYYTGSVKGRFTISRENAKNSLYLQMNSLRAADTAVYYCVRGGVWDDAFDIWGQGTMVTVSS VL: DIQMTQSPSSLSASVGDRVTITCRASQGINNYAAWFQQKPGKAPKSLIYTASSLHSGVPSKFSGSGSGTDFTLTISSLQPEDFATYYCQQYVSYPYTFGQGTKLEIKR
556
